Readings of IC50 for the listed sequences
Biological target: HLA-B*2705 (Homo sapiens, UniProt P01889, D138H/D201E/E176V/E204Q/G107R/H137Y/K202T/N104T/N87E/Q56L/Q94K/R106L/R155S/R180L/S101D/S121N/S48T/Y140D/Y33H/Y91C)
Experiment: biochemical
Assay type: binding
No end group written: not given here.
Numeric answer only, unit nM assumed.

| biopolymerSequence | readingUnit | measuredResult |
| --- | --- | --- |
| KRLRLIHLL [Rev12–20KL9] | nM | 1.1 |
| KRLAETLAL [KRLAETLAL, reference compound] | nM | 165 |

// IC50 value for KRQQELLRL [Env573–581KL9] : 69

Provenance of the data: paper PMC2701622
